Provenance of the data: patent US20210032253A1

Please go through the items and note down their half-life.
# TEST PROTOCOL: Pharmacokinetics assay in mice after intragastrical administration (plasma, LC/MS/MS)
# Type: in vivo
# EXPERIMENTAL PARAMETERS: mouse, po, C57 mice (female), 2 mg/kg, read-out: Half-life T1/2 (converted)
Response body: numeric value in h, unit text excluded.

Query (compound): `Cc1ccc(-c2nc(N)nc3c(Cc4cccc(CO[C@H]5CCOC5)n4)cnn23)o1` ; field requested: half-life
0.48

I am curious: what half-life value has been reported for `Cc1ccc(-c2nc(N)nc3c(Nc4cccc(CO[C@H]5CCOC5)n4)cnn23)o1` ?
1.42

GET /values?readout=half-life&item= `Cc1ccc(-c2nc(N)nc3c(Oc4cccc(CO[C@H]5CCOC5)n4)cnn23)o1`
1.85

###

Record form. Attribute: IC50. Fill in for each entry.
# MEASUREMENT TARGET: adenosine A2a receptor (A2aR) (Homo sapiens)
# Construct: expressed in transfected cells; host or cells: CHO-K1
# TEST PROTOCOL: Inhibition of adenosine A2a receptor cAMP signaling pathway in CHO-K1/A2aR cells (HTRF cAMP dynamic 2 kit)
# Type: cell-based
# EXPERIMENTAL PARAMETERS: Table 1, 20 nM ethylcarbazole
Kindly answer with a numeric value in nM, unit omitted.

GET /values?readout=IC50&item= CCCc1cccc(Cc2cnn3c(-c4ccc(C)o4)nc(N)nc23)n1 [Example 20]
0.09

Would you kindly share the measured IC50 for Cc1ccc(-c2nc(N)nc3c(Nc4cccc(CO[C@H]5CCOC5)n4)cnn23)o1 [Example 18] ?
0.87

Any idea what IC50 was measured for Cc1ccc(-c2nc(N)nc3c(Nc4cccc(CO[C@@H]5CCOC5)n4)cnn23)o1 [Example 21] ?
0.4

Which IC50 value belongs to Cc1ccc(-c2nc(N)nc3c(Cc4cccc(CO[C@@H]5CCOC5)n4)cnn23)o1 [Example 6] ?
0.4

Suppose we examine the molecule COCCOCc1cccc(Cc2cnn3c(-c4ccc(C)o4)nc(N)nc23)n1 [Example 3] ; what IC50 value has been reported?
0.45

Quick check: IC50 of Nc1nc(-c2ccco2)n2ncc(Cc3ccccc3)c2n1 [Example 33] ?
4.14

What does the record list as IC50 for Nc1nc(-c2ccco2)n2ncc(Cc3ccccc3F)c2n1 [Example 10] ?
1.71

Entry Cc1ccc(-c2nc(N)nc3c(Nc4ccccc4F)cnn23)o1 [Example 31] has what IC50?
3.53

Can you look up the measured IC50 of Cc1ccc(-c2nc(N)nc3c(Cc4cccc(CO[C@H]5CCOC5)c4)cnn23)o1 [Example 24] for me?
1.2

Returns the measured IC50 for the input molecule. Input: Cc1ccc(-c2nc(N)nc3c(Nc4cccc(CO[C@H]5CCOC5)c4F)cnn23)o1 [Example 26]
1.66

Quick one: IC50 for Cc1ccc(-c2nc(N)nc3c(Cc4cccc(CO[C@H]5CCOC5)n4)cnn23)o1 [Example 1] ?
0.33

I'd like to know its IC50. The molecule in question is Cc1ccc(-c2nc(N)nc3c(Cc4cccc(CN5CCOCC5)n4)cnn23)o1 [Example 5]
0.55

Give its IC50 value. Item: COCc1cccc(Cc2cnn3c(-c4ccc(C)o4)nc(N)nc23)n1 [Example 13]
1.7

Give its IC50 value. Item: Cc1ccc(-c2nc(N)nc3c(Nc4cccc(CN5CCN(C)CC5)n4)cnn23)o1 [Example 29]
2.8

###

# TEST PROTOCOL: Pharmacokinetics assay in mice after intragastrical administration (plasma, LC/MS/MS)
# Type: in vivo
# EXPERIMENTAL PARAMETERS: mouse, po, C57 mice (female), 2 mg/kg, read-out: Clearance CLz/F
EXPERIMENTAL ENDPOINT: CL/F (mL/min/kg)
Your answer should be a plain number; it is taken to be in mL/min/kg.

Which CL/F is listed for `Cc1ccc(-c2nc(N)nc3c(Cc4cccc(CO[C@H]5CCOC5)n4)cnn23)o1` ?
45.9

Tell me the measured CL/F of `Cc1ccc(-c2nc(N)nc3c(Oc4cccc(CO[C@H]5CCOC5)n4)cnn23)o1` , please.
13.3

CL/F lookup needed for `Cc1ccc(-c2nc(N)nc3c(Nc4cccc(CO[C@H]5CCOC5)n4)cnn23)o1` , thanks.
6.83

###

# MEASUREMENT TARGET: adenosine A3 receptor (A3R) (Homo sapiens)
# Construct: expressed in transfected cells; host or cells: CHO-K1
# Sequence (P0DMS8 1-318): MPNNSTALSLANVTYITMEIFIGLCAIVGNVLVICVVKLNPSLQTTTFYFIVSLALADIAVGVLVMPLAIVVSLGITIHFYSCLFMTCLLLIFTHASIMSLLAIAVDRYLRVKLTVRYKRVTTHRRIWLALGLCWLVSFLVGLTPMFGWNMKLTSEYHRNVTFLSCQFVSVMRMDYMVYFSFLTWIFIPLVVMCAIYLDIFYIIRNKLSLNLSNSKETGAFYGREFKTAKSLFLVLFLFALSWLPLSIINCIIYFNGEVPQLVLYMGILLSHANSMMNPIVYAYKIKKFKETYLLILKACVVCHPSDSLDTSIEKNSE
# TEST PROTOCOL: Inhibition of adenosine A3 receptor cAMP signaling pathway in CHO-K1/A3R cells (HTRF cAMP dynamic 2 kit)
# Assay type: cell-based
# EXPERIMENTAL PARAMETERS: Table 3; CHO-K1/A3R cells, cAMP, 10 μM forskolin, 5 nM 2Cl-IB-MECA
EXPERIMENTAL ENDPOINT: IC50
Please make sure the unit comes right after the number.

Given the entry Cc1ccc(-c2nc(N)nc3c(Cc4cccc(CN5CC6COCC6C5)n4)cnn23)o1 (stereo not drawn) [Example 9] , report its measured IC50.
3370 nM

Would you kindly share the measured IC50 for Cc1ccc(-c2nc(N)nc3c(Cc4cccc(COCC5CC5)n4)cnn23)o1 [Example 17] ?
1390 nM

Name the recorded IC50 for Cc1ccc(-c2nc(N)nc3c(Cc4cccc(COCCF)n4)cnn23)o1 [Example 14] .
1390 nM

Param item = Cc1ccc(-c2nc(N)nc3c(Sc4cccc(CO[C@H]5CCOC5)n4)cnn23)o1 [Example 28] ; retrieve measured IC50.
1150 nM

What IC50 value was documented for this compound, Cc1ccc(-c2nc(N)nc3c(Cc4cccc(CO[C@H]5CCN(C)C5)n4)cnn23)o1 [Example 15] ?
8970 nM

Param item = Cc1ccc(-c2nc(N)nc3c(Cc4cccc(CO[C@H]5CCOC5)n4)cnn23)o1 [Example 1] ; retrieve measured IC50.
2060 nM

Which value of IC50 has been reported for COCCOCc1cccc(Cc2cnn3c(-c4ccc(C)o4)nc(N)nc23)n1 [Example 3] in the records?
4120 nM

Given Cc1ccc(-c2nc(N)nc3c(Nc4cccc(CO[C@H]5CCOC5)c4F)cnn23)o1 [Example 26] , state its recorded IC50.
5300 nM

Using the record for Cc1ccc(-c2nc(N)nc3c(Cc4cccc(CO)n4)cnn23)o1 [Example 2] , report its IC50.
2420 nM

###

# MEASUREMENT TARGET: adenosine A2a receptor (A2aR) (Homo sapiens, UniProt P29274)
# Construct: expressed in transfected cells; host or cells: CHO-K1
# Sequence (P29274 whole entry): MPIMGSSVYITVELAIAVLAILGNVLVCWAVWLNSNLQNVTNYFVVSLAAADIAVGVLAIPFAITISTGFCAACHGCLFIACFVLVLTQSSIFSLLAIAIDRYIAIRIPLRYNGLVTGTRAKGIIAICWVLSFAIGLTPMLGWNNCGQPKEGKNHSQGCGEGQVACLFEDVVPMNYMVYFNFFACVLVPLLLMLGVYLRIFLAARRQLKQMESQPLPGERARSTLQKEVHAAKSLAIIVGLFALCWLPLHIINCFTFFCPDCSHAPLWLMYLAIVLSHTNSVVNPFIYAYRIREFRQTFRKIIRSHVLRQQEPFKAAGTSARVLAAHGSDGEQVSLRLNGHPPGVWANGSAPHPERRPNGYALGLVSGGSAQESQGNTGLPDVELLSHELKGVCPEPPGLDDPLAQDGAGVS
# TEST PROTOCOL: Inhibition of adenosine A2a receptor cAMP signaling pathway in CHO-K1/A2aR cells (HTRF cAMP dynamic 2 kit)
# Assay type: cell-based
# EXPERIMENTAL PARAMETERS: Table 1, 20 nM ethylcarbazole
Each record gets a class by IC50: low = under 0.7 nM, moderate = from 0.7 nM up to 2 nM, high = 2 nM and over

Please report the category associated with Cc1ccc(-c2nc(N)nc3c(Nc4cccc(CN5CC6COCC6C5)n4)cnn23)o1 (stereo not drawn) [Example 30] , nothing else.
high

Hello team, could you let me know which band the following compound falls into: Cc1ccc(-c2nc(N)nc3c(Cc4cccc(COC5CCCC5)n4)cnn23)o1 [Example 22]
low

Could you place Cc1ccc(-c2nc(N)nc3c(Cc4cccc(CN5CC6(COC6)C5)n4)cnn23)o1 [Example 7] in its proper category? Many thanks.
moderate

Class for Cc1ccc(-c2nc(N)nc3c(Cc4cccc(CN5CCN(C)CC5)n4)cnn23)o1 [Example 8] ?
moderate

Sort Cc1ccc(-c2nc(N)nc3c(Nc4cccc(CN5CCOCC5)n4)cnn23)o1 [Example 27] into one of the categories.
moderate

Where would Cc1ccc(-c2nc(N)nc3c(Oc4ccccn4)cnn23)o1 [Example 23] land among the classes by reported IC50?
low

Textbook exercise: identify the category of the compound given here, Cc1ccc(-c2nc(N)nc3c(Nc4cccc(CO[C@H]5CCOC5)c4)cnn23)o1 [Example 25] , according to its measured value.
moderate

Dear colleague, I would appreciate it if you could identify the bin for Cc1ccc(-c2nc(N)nc3c(Nc4cccc(CN5CC6(COC6)C5)n4)cnn23)o1 [Example 32] and reply at your convenience.
high

###

# MEASUREMENT TARGET: adenosine A3 receptor (A3R) (Homo sapiens, UniProt P0DMS8)
# Construct: expressed in transfected cells; host or cells: CHO-K1
# TEST PROTOCOL: Inhibition of adenosine A3 receptor cAMP signaling pathway in CHO-K1/A3R cells (HTRF cAMP dynamic 2 kit)
# Type: cell-based
# EXPERIMENTAL PARAMETERS: Table 3; selectivity A3R over A2aR
Would you mind telling me the reported IC50 ratio (A3R/A2aR) of each entry?

Which IC50 ratio (A3R/A2aR) reading was recorded for the molecule `Cc1ccc(-c2nc(N)nc3c(Nc4cccc(CN5CCN(C)CC5)n4)cnn23)o1` ?
779^

Which IC50 ratio (A3R/A2aR) value belongs to `Cc1ccc(-c2nc(N)nc3c(Cc4cccc(COCC5CC5)n4)cnn23)o1` ?
>10^3

Requested read-out: IC50 ratio (A3R/A2aR). Entry: `Cc1ccc(-c2nc(N)nc3c(Cc4cccc(CO[C@H]5CCOC5)n4)cnn23)o1`
>10^3

Quick one: IC50 ratio (A3R/A2aR) for `Cc1ccc(-c2nc(N)nc3c(Sc4cccc(CO[C@H]5CCOC5)n4)cnn23)o1` ?
540^

Look up IC50 ratio (A3R/A2aR): Cc1ccc(-c2nc(N)nc3c(Cc4cccc(CN5CC6COCC6C5)n4)cnn23)o1 (centres unmarked)
>10^3

Name the reported IC50 ratio (A3R/A2aR) value associated with the molecule `Cc1ccc(-c2nc(N)nc3c(Cc4cccc(CO)n4)cnn23)o1`
>10^3

# get_value(readout='IC50 ratio (A3R/A2aR)', item= Cc1ccc(-c2nc(N)nc3c(Nc4cccc(CN5CC6COCC6C5)n4)cnn23)o1 (centres unmarked) )
>10^3

What does the data say about its IC50 ratio (A3R/A2aR)? Entry: `COCCOCc1cccc(Cc2cnn3c(-c4ccc(C)o4)nc(N)nc23)n1`
>10^3
